From: patent US20180244777A1

molecular target: T1, human heterodimeric single-chain CD3εγ extracellular domain (human, UniProt P07766 23-126; P09693 23-116); assay: SPR, rabbit IgG captured, human single-chain CD3εγ ECD injected
T1 construct: extracellular domain; Produced in-house; also called scCD3γε; human CD3ge
T1 sequence (P07766 23-126, chain 1 of 2): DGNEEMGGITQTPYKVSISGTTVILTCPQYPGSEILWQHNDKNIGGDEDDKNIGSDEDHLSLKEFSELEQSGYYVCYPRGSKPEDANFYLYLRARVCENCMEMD
T1 sequence (P09693 23-116, chain 2 of 2): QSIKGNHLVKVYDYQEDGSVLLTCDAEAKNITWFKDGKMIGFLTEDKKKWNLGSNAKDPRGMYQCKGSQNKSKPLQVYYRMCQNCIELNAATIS
Recorded measurements of log10 of koff, one per entry
Please note: log10 values; quantity koff; unit s⁻¹.

Example cases with answers are listed next.
GET /values?readout=log10 of koff&item= clone-02 (antibody, V domains shown, Recombinant rabbit IgG; also called Clone 2) VH: QSLEESGGRLVTPGTPLTLTCTVSGFPLSAYAMIWVRQAPGKGLEWIGMIIRSGTVYYANWAKGRFTISKTSTTVDLKITSPTTEDTATYFCARRHYNADGYPIGIGDLWGPGTLVTVSS VL: AQVLTQTPSSVSAVVGGTVTISCQSSESVYSNNRLSWFQQKPGQPPKLLIYSASTLASGVPSRFKGSGSGTQFTLTITDLECDDAATYFCQGEFSCSSVDCFSFGGGTEVVVKG
-3.58

Ok, now clone-11 (antibody, V domains shown, Recombinant rabbit IgG) VH: QSLEESGGRLVTPGTPLTLTCTVSGFPLSSYAMGWFRQAPGKGLEWIGMILRADNTYYASWVNGRFTISKTSTTVDLKITSPTTEDTATYFCARRHYNTYGYPVAIGDLWGPGTLVTVSS VL: AQVLTQTPSSVSAAVGGTVTINCQSSQSVYNNNRLSWFQQKPGQPPKLLIYTASSLASGVPSRFKGSGSGTEFTLTISDLECADAATYYCQGEFSCSSADCFTFGGGTEVVVKG
-2.88

Ok, now clone-04 (antibody, V domains shown, Recombinant rabbit IgG; also called Clone 4) VH: QSLEESGGRLVKPDETLTLTCTVSGFPLSSYAMGWFRQAPGKGLEWIGMILRSDNTYYASWAKGRFTISKTSTTVDLKITSPTTEDTATYFCARRHYNASGNPIAIGDLWGPGTLVTVSS VL: AQVLTQTPSSVSAAVGGTVTINCQSSQSVYNNNRLSWFQQKPGQPPKLLIYTTSSLASGVPSRFKGSGSGTEFTLTISDLECADAATYYCQGEFSCSRADCFNFGGGTEVVVKG
-4.01

Ok, now clone-01 (antibody, V domains shown, Recombinant rabbit IgG; also called purified monoclonal rabbit anti-CD3ε antibody clone-01) VH: QSVEESGGRLVTPGTPLTLTCTVSGFPLSSYAMIWVRQAPGKGLEWIGMILRAGNIYYASWAKGRFTISKTSTTVDLKITSPTTEDTATYFCARRQYNTDGYPIGIGDLWGPGTLVTVSS VL: AQVLTQTASSVSAAVGGTVTISCQSSESVYNNNRLSWFQQKPGQPPKQLIYSASSLASGVPSRFKGSGSGTQFTLTISDLECDDAATYYCQGEFSCSSADCFTFGGGTEVVVKG
-2.80

Ok, now clone-03 (antibody, V domains shown, Recombinant rabbit IgG; also called Clone 3) VH: QSLEESGGRLVTPGTPLTLTCTVSGFPLNRYAMLWVRQAPGKGLEWIGLITRADKKYYASWAKGRFTISKTSTTVDLEITGPTTEDTATYFCARRHYNTDGYPIAIGDLWGPGTLVTVSS VL: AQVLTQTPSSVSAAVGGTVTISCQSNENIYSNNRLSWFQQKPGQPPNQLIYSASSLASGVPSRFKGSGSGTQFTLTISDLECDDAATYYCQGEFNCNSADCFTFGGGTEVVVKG
-3.30

More entries:
GET /values?readout=log10 of koff&item= clone-12 (antibody, V domains shown, Recombinant rabbit IgG) VH: QSLEESGGRLVTPGTPLTLTCTVSGFPLSRYAMLWVRQAPGKGLEWIGLITRADNKYYASWAKGRFTISKTSTTVDLEITSPTTEDTATYFCARRHYNTDGYPIAIGDLWGPGTLVTVSS VL: AQVLTQTPSSVSATVGGTVTISCQSNENIYSNNRLSWFQQKPGQPPKLLIYSASSLASGVPSRFKGSGSGTQFTLTISDLECDDAATYYCQGEFNCNSADCFTFGGGTEVVVKG
-3.10
